Data provenance: paper PMC11211886

System: plasma proteins
Test: Plasma protein binding (RED), human plasma
Format: in vitro ADME
Details: plasma, pH 7.4; all species (mouse, rat, dog, monkey, human), 0.1–20 μM
value-type: fraction unbound at 6 h

Problem: Which fraction unbound at 6 h value is on record for C[C@H](Nc1ncnc(N)c1C#N)c1cc2ncc(Cl)n2nc1-c1ccccc1 ?
Solution: ~0.1

---

Assay: Caco-2 bidirectional transport permeability
Format: in vitro ADME, human
Details: human
value-type: Papp B→A at 120 min, 10 µM (×10⁻⁶ cm/s)
Report as a plain number; the unit ×10⁻⁶ cm/s is understood.

Problem: Returns the measured Papp B→A at 120 min, 10 µM for the input molecule. Input: C[C@H](Nc1ncnc(N)c1C#N)c1cc2ncc(Cl)n2nc1-c1ccccc1 [Amdizalisib]
Solution: 56

---

Experiment: Single-dose PK in SD rats (IV/PO)
Parameters: species or system SD rat
Conditions: both sexes, in vivo; SD rat, fasted, PO 1 mg/kg; read-out: t1/2 (converted)
value-type: half-life
Param answer (str): number followed by unit.

Problem: Entry C[C@H](Nc1ncnc(N)c1C#N)c1cc2ncc(Cl)n2nc1-c1ccccc1 has what half-life?
Solution: 4.94 h

---

Experiment: Metabolic stability in monkey liver microsomes
Type: in vitro ADME
Conditions: male, monkey, microsomes, pH 7.4, Predicted CL int, iv vivo
value-type: CLint scaled at 1 µM (mL/min/kg)
Number only, in mL/min/kg; omit the unit.

Problem: Recorded CLint scaled at 1 µM of C[C@H](Nc1ncnc(N)c1C#N)c1cc2ncc(Cl)n2nc1-c1ccccc1 [Amdizalisib] , please.
Solution: 30

---

Target: OAT3 (Homo sapiens)
Sequence (Q8TCC7 whole entry): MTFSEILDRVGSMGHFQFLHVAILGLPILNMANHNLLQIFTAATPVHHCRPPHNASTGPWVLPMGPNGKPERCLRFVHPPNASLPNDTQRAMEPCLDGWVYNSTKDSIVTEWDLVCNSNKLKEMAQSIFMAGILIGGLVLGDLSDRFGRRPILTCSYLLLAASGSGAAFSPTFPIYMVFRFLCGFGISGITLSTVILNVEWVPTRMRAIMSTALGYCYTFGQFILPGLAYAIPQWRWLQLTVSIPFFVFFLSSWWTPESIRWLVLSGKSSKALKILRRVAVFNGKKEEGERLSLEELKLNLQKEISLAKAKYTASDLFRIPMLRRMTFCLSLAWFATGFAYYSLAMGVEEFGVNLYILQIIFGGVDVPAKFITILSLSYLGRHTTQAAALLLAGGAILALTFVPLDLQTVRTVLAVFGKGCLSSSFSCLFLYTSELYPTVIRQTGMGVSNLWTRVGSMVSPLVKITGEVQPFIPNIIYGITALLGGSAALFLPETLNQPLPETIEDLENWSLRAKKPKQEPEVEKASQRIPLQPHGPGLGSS
Assay: in vitro
Conditions: human, pH 7.4
value-type: inhibition at 2 min, 30 µM
Please don't drop the unit; write it after the number.

Problem: Look up inhibition at 2 min, 30 µM: C[C@H](Nc1ncnc(N)c1C#N)c1cc2ncc(Cl)n2nc1-c1ccccc1
Solution: 47.7%

---

Assay: Tissue distribution in SD rats after oral dose
Design: species or system SD rat
Details: both sexes, SD, rat, in vivo, po, 5 mg/kg, exposure in the intestines versus plasma
Method: After blood collection, the rats were sacrificed, and 18 tissues, namely, brain, breast, skin, fat, testis, ovary, bladder, pancreas, skeletal muscle, heart, lung, kidney, liver, stomach, small intestine, colon, spleen, and spinal cord, were removed from the rats at designated time points. These tissues were washed with saline and dried with filter paper. […] (Cheongju-si, Korea). […] The weight of the collected samples was recorded. Samples were stored in a −20°C freezer until analysis.
value-type: Kp

Problem: Reported Kp, compound C[C@H](Nc1ncnc(N)c1C#N)c1cc2ncc(Cl)n2nc1-c1ccccc1 : ____
Solution: 3 to 6

---

Target: UniProt Q8TCC7
Assay: in vitro
Conditions: human, pH 7.4
value-type: inhibition at 2 min, 10 µM (%)
Write down the numeric answer in % and omit the unit.

Problem: // lookup inhibition at 2 min, 10 µM for C[C@H](Nc1ncnc(N)c1C#N)c1cc2ncc(Cl)n2nc1-c1ccccc1 [Amdizalisib]
Solution: -0.883

---

System: CYP2C19
Test: CYP induction in human hepatocytes, CYP2C19 enzyme activity
Format: in vitro ADME
Details: human three, cryopreserved human hepatocytes, probe S-(+)-mephenytoin (80 µM); CYP2C19, donor eight, 25 µM
value-type: fold induction at 48 h, 25 µM
Quick one: just the number, no unit, thanks!

Problem: Request - read-out fold induction at 48 h, 25 µM | tested on CYP2C19 | molecule CCOC(=O)c1ncn2c1CN(C)C(=O)c1cc(F)ccc1-2
Solution: 0.87
